The reported measurements were obtained from the supplement of paper PMC9112550.

- Tested on: Escherichia coli TOP10;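 further: peptides expressed intracellularly from a pBAD plasmid library in pooled LB shake-flask culture, induced with 0.3% L-arabinose, DNA abundance read by NGS, three biological replicates, DESeq2 with apeglm shrinkage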
- ASSAY_TEXT: shrunken log2 fold change of peptide-encoding DNA abundance (4.5 h post-induction vs induction); higher = less antimicrobial activity (less host growth inhibition)
- PARTICULARS: time post-induction: 4.5 h; library: site-saturation at positions 5, 18, 19, 20
Binary classification by shrunken log2 fold change, with 0.02 as an inclusive lower bound for rule met; all other cases are rule not met.

Here's what some known entries look like.
Request: Quick check: does `RRIRHRPPRLPRPRPRPTVWPRP` have shrunken log2 fold change greater than or equal to 0.02?
Result: rule met

Request: Quick check: does `RRIRGRPPRLPRPRPRPEKSPRP` have shrunken log2 fold change greater than or equal to 0.02?
Result: rule met

Request: Quick check: does `RRIRIRPPRLPRPRPRPTSMPRP` have shrunken log2 fold change greater than or equal to 0.02?
Result: rule not met

Request: Quick check: does `RRIRDRPPRLPRPRPRPYHMPRP` have shrunken log2 fold change greater than or equal to 0.02?
Result: rule not met

Request: Quick check: does `RRIRERPPRLPRPRPRPMMCPRP` have shrunken log2 fold change greater than or equal to 0.02?
Result: rule not met

Request: Quick check: does `RRIRGRPPRLPRPRPRPWCCPRP` have shrunken log2 fold change greater than or equal to 0.02?
Result: rule met

More entries:
Request: Quick check: does `RRIRTRPPRLPRPRPRPKYWPRP` have shrunken log2 fold change greater than or equal to 0.02?
Result: rule not met

Request: Quick check: does `RRIRPRPPRLPRPRPRPYVNPRP` have shrunken log2 fold change greater than or equal to 0.02?
Result: rule not met

Request: Quick check: does `RRIRGRPPRLPRPRPRPWALPRP` have shrunken log2 fold change greater than or equal to 0.02?
Result: rule not met

Request: Quick check: does `RRIRQRPPRLPRPRPRPPYSPRP` have shrunken log2 fold change greater than or equal to 0.02?
Result: rule not met

Request: Quick check: does `RRIRRRPPRLPRPRPRPTFSPRP` have shrunken log2 fold change greater than or equal to 0.02?
Result: rule met

Request: Quick check: does `RRIRGRPPRLPRPRPRPPYRPRP` have shrunken log2 fold change greater than or equal to 0.02?
Result: rule met

Request: Quick check: does `RRIRGRPPRLPRPRPRPNRYPRP` have shrunken log2 fold change greater than or equal to 0.02?
Result: rule met

Request: Quick check: does `RRIRYRPPRLPRPRPRPRDRPRP` have shrunken log2 fold change greater than or equal to 0.02?
Result: rule not met

Request: Quick check: does `RRIRERPPRLPRPRPRPTPFPRP` have shrunken log2 fold change greater than or equal to 0.02?
Result: rule not met

Request: Quick check: does `RRIRHRPPRLPRPRPRPECYPRP` have shrunken log2 fold change greater than or equal to 0.02?
Result: rule not met

Request: Quick check: does `RRIRFRPPRLPRPRPRPCNLPRP` have shrunken log2 fold change greater than or equal to 0.02?
Result: rule not met

Request: Quick check: does `RRIRDRPPRLPRPRPRPWTPPRP` have shrunken log2 fold change greater than or equal to 0.02?
Result: rule not met

Request: Quick check: does `RRIRERPPRLPRPRPRPGPVPRP` have shrunken log2 fold change greater than or equal to 0.02?
Result: rule met

Request: Quick check: does `RRIRKRPPRLPRPRPRPHIAPRP` have shrunken log2 fold change greater than or equal to 0.02?
Result: rule not met

Request: Quick check: does `RRIRVRPPRLPRPRPRPDAKPRP` have shrunken log2 fold change greater than or equal to 0.02?
Result: rule met

Request: Quick check: does `RRIRLRPPRLPRPRPRPSGPPRP` have shrunken log2 fold change greater than or equal to 0.02?
Result: rule not met

Request: Quick check: does `RRIRERPPRLPRPRPRPVVLPRP` have shrunken log2 fold change greater than or equal to 0.02?
Result: rule not met

Request: Quick check: does `RRIRYRPPRLPRPRPRPYGVPRP` have shrunken log2 fold change greater than or equal to 0.02?
Result: rule not met

Request: Quick check: does `RRIRKRPPRLPRPRPRPCTAPRP` have shrunken log2 fold change greater than or equal to 0.02?
Result: rule met

Request: Quick check: does `RRIRNRPPRLPRPRPRPEWDPRP` have shrunken log2 fold change greater than or equal to 0.02?
Result: rule not met

Request: Quick check: does `RRIRERPPRLPRPRPRPRYAPRP` have shrunken log2 fold change greater than or equal to 0.02?
Result: rule not met

Request: Quick check: does `RRIRSRPPRLPRPRPRPHHAPRP` have shrunken log2 fold change greater than or equal to 0.02?
Result: rule not met

Request: Quick check: does `RRIRNRPPRLPRPRPRPNISPRP` have shrunken log2 fold change greater than or equal to 0.02?
Result: rule not met

Request: Quick check: does `RRIRIRPPRLPRPRPRPIHMPRP` have shrunken log2 fold change greater than or equal to 0.02?
Result: rule not met
